- subject-of-test: pm5 (human, sulfated tyrosines at Y15 and Y17)
- Sequence (peptide, as listed by the source): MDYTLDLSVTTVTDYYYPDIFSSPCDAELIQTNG
- protocol-summary: ELISA on coated peptide [cont.]
measurement-name: binding result

[[record]]
binder = "3-29 (antibody, V domains shown) VH: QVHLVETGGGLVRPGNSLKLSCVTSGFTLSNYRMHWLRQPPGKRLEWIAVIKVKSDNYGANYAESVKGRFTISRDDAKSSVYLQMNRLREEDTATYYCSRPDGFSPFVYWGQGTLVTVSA VL: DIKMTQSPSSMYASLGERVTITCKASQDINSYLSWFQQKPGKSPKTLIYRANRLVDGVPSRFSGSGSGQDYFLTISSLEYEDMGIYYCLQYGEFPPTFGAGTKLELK"
value_measured = "binds"

[[record]]
binder = "3-28 (antibody, V domains shown) VH: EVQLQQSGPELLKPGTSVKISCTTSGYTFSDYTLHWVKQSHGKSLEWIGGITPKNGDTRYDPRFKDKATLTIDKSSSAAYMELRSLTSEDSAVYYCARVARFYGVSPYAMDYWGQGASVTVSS VL: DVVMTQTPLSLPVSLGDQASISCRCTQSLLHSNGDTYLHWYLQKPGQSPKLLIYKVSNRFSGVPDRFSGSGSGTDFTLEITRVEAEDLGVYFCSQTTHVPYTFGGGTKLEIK"
value_measured = "binds"

[[record]]
binder = "3-13 (antibody, V domains shown) VH: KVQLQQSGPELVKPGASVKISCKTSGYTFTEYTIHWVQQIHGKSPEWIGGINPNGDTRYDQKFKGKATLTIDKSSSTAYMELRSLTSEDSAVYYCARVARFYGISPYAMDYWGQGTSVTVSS VL: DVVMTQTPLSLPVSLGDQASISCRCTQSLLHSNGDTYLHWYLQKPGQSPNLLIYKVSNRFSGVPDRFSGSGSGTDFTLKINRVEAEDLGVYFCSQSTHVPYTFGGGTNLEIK"
value_measured = "binds"

